System: Staphylococcus aureus
Test: Antibacterial activity against Staphylococcus aureus ATCC 29213 after 24 to 96 hrs by twofold serial dilution method
Assay type: functional
Measured property: MIC

Smiles representation	MIC
CC(C)C[C@@H]1NC(=O)[C@H](CCCN)NC(=O)[C@H](C(C)C)NC(=O)[C@H](Cc2c[nH]c3ccccc23)NC(=O)[C@H](CC(=O)O)NC(=O)[C@@H]2O[C@H](CNC(=O)[C@H](Cc3c[nH]c4ccccc34)NC(=O)[C@@H]3CCCN3C(=O)[C@@H](Cc3ccc(O)cc3)NC1=O)[C@@H](OCc1ccccc1)[C@@H]2O	> 64 µg/mL
CC(C)C[C@@H]1NC(=O)[C@H](CCCN)NC(=O)[C@H](C(C)C)NC(=O)[C@H](Cc2c[nH]c3ccccc23)NC(=O)[C@H](CC(=O)O)NC(=O)[C@H](CC(N)=O)NC(=O)[C@H](Cc2ccccc2)NC(=O)[C@H](Cc2c[nH]c3ccccc23)NC(=O)[C@@H]2CCCN2C(=O)[C@@H](Cc2ccc(O)cc2)NC1=O	64 µg/mL

Next:
Problem: Hello, please tell me recorded MIC for this one: CC(C)C[C@@H]1NC(=O)[C@H](CCCN)NC(=O)[C@H](C(C)C)NC(=O)[C@@H]2O[C@H](CNC(=O)[C@H](CC(N)=O)NC(=O)[C@H](Cc3ccccc3)NC(=O)[C@H](Cc3c[nH]c4ccccc34)NC(=O)[C@@H]3CCCN3C(=O)[C@@H](Cc3ccc(O)cc3)NC1=O)[C@@H](OCc1ccccc1)[C@@H]2O
Solution: > 64 µg/mL

Source of measurements: ChEMBL document CHEMBL1152548
